# Test system: HeLa
# test.description: Cytotoxicity against human HeLa cells assessed as reduction in cell viability at 10 uM measured after 24 hrs by MTT assay relative to control
# Type: functional, cell-based
recorded.metric: pIC50
Notebook: values listed as pIC50 are -log10 of the concentration (mol/L).

# compound, value.reported
records = [
    ("CC(=O)O[C@@]12CO[C@@H]1C[C@H](O)[C@@]1(C)C(=O)[C@H](O)C3=C(C)[C@@H](OC(=O)[C@H](O)[C@@H](NC(=O)OC(C)(C)C)c4ccccc4)C[C@@](O)([C@@H](OC(=O)c4ccccc4)[C@H]21)C3(C)C [DOCETAXEL ANHYDROUS]", 5.49),
    ("COC(=O)c1cc2c([nH]c3ccccc32)c(C)n1", 4.45),
    ("COC(=O)c1cc2c([nH]c3ccc(NC(=O)c4cc(C(F)(F)F)cc(C(F)(F)F)c4)cc32)c(C)n1", 5.28),
]

--- query ---
Lookup: Please indicate recorded pIC50 of `COC(=O)c1cc2c([nH]c3ccc(NC(=O)c4ccc(C(C)(C)C)cc4)cc32)c(C)n1` measured with HeLa.
Found: 5.44

----------
# System: Leishmania donovani
# test.description: Antileishmanial activity against Leishmania donovani MHOM/80/IN/Dd8 promastigotes infected in THP-1 cells assessed as measured after 48 hrs by MTT assay
# Assay type: functional, organism-based
# experimental.conditions: Leishmania donovani, MHOM/80/IN/Dd8, THP-1, 48 h; read-out: IC50
recorded.metric: IC50

Worked examples, 5 compounds total:
# sample.smiles, value.reported
records = [
    ("COC(=O)c1cc2c([nH]c3ccc(NC(=O)c4ccccc4C(F)(F)F)cc32)c(C)n1", "> 100 µM"),
    ("COC(=O)c1cc2c([nH]c3ccc(NC(=O)c4ccc(C(C)(C)C)cc4)cc32)c(C)n1", "68 µM"),
    ("COCC(=O)Nc1ccc2[nH]c3c(C)nc(C(=O)OC)cc3c2c1", "> 100 µM"),
    ("COC(=O)c1cc2c([nH]c3ccc(NC(=O)c4ccco4)cc32)c(C)n1", "> 100 µM"),
    ("CCCCCCCCCCCCCCCCOP(=O)([O-])OCC[N+](C)(C)C", "11.9 µM"),
]

Lookup: Could you please provide reported IC50 for `COC(=O)c1cc2c([nH]c3ccc([N+](=O)[O-])cc32)c(C)n1` ? Thanks!
Found: > 100 µM

Lookup: Could you please provide reported IC50 for `COC(=O)c1cc2c([nH]c3ccc(N)cc32)c(C)n1` ? Thanks!
Found: > 100 µM

Lookup: Could you please provide reported IC50 for `COC(=O)c1cc2c([nH]c3ccc(NC(C)=O)cc32)c(C)n1` ? Thanks!
Found: > 100 µM

Lookup: Could you please provide reported IC50 for `COC(=O)c1cc2c([nH]c3ccc(NC(=O)C4CCCCC4)cc32)c(C)n1` ? Thanks!
Found: 23.5 µM

----------
# test.description: Selectivity index, ratio of IC50 for differentiated human THP-1 cells to IC50 for Leishmania donovani MHOM/80/IN/Dd8 promastigotes
# Type: toxicity
# experimental.conditions: differentiated THP-1 cells, read-out: Ratio IC50
# maps each entry to its selectivity ratio
// print number alone

Worked examples, 2 compounds total:
# sample.smiles, selectivity ratio
data = [
    ("CCCCCCCCCCCCCCCCOP(=O)([O-])OCC[N+](C)(C)C", 2.64),
    ("COC(=O)c1cc2c([nH]c3ccc(NC(=O)c4ccc(C(C)(C)C)cc4)cc32)c(C)n1", 0.47),
]

--- query ---
Lookup: Could you please provide reported selectivity ratio for `COC(=O)c1cc2c([nH]c3ccc(NC(=O)C4CCCCC4)cc32)c(C)n1` ? Thanks!
Found: 3.27

----------
# test.description: Solubility of the compound in 20% DMSO
# Format: physicochemical
recorded.metric: solubility

Worked examples, 4 compounds total:
# sample.smiles, recorded.metric, value.reported
rows = [
    ("COC(=O)c1cc2c([nH]c3ccc(NC(=O)c4ccc(C)cc4)cc32)c(C)n1", "solubility", "Insoluble"),
    ("COC(=O)c1cc2c([nH]c3ccc(NC(=O)COc4ccccc4)cc32)c(C)n1", "solubility", "Insoluble"),
    ("COC(=O)c1cc2c([nH]c3ccc(NC(=O)/C=C/c4ccccc4)cc32)c(C)n1", "solubility", "Insoluble"),
    ("COC(=O)c1cc2c([nH]c3ccc(NC(=O)Oc4ccc([N+](=O)[O-])cc4)cc32)c(C)n1", "solubility", "Insoluble"),
]

--- query ---
Lookup: Could you please provide reported solubility for `CCCCCCCCCCCC(=O)Nc1ccc2[nH]c3c(C)nc(C(=O)OC)cc3c2c1` ? Thanks!
Found: Insoluble

----------
# maps each entry to its pIC50
# Tested on: THP-1
# test.description: Cytotoxicity against differentiated human THP-1 cells measured after 48 hrs by MTT assay
# Assay type: cell-based
# experimental.conditions: THP-1, 48 h
Notebook: values listed as pIC50 are -log10 of the concentration (mol/L).

Lookup: Please indicate recorded pIC50 of `COC(=O)c1cc2c([nH]c3ccc(NC(=O)c4ccc(C(C)(C)C)cc4)cc32)c(C)n1` measured with THP-1.
Found: 4.49

Lookup: Please indicate recorded pIC50 of `CCCCCCCCCCCCCCCCOP(=O)([O-])OCC[N+](C)(C)C` measured with THP-1.
Found: 4.50

Lookup: Please indicate recorded pIC50 of `COC(=O)c1cc2c([nH]c3ccc(NC(=O)C4CCCCC4)cc32)c(C)n1` measured with THP-1.
Found: 4.11

----------
# Tested on: Leishmania donovani
# test.description: Antileishmanial activity against Leishmania donovani MHOM/80/IN/Dd8 promastigotes infected in THP-1 cells assessed as measured after 48 hrs by MTT assay
# Type: functional, organism-based
# experimental.conditions: Leishmania donovani, MHOM/80/IN/Dd8, THP-1, 48 h; read-out: IC50
recorded.metric: IC50

Worked examples, 5 molecules total:
# sample.smiles, IC50
data = [
    ("CCCCC(=O)Nc1ccc2[nH]c3c(C)nc(C(=O)OC)cc3c2c1", "> 100 µM"),
    ("COC(=O)c1cc2c([nH]c3ccc(NC(=O)c4cc(C)oc4C)cc32)c(C)n1", "> 100 µM"),
    ("COC(=O)c1cc2c([nH]c3ccc(NC(=O)c4ccccc4)cc32)c(C)n1", "> 100 µM"),
    ("COC(=O)c1cc2c([nH]c3ccccc32)c(C)n1", "9 µM"),
    ("COC(=O)c1cc2c([nH]c3ccc(NC(=O)c4cccs4)cc32)c(C)n1", "> 100 µM"),
]

Lookup: Could you please provide reported IC50 for `COC(=O)c1cc2c([nH]c3ccc(NC(=O)c4cc(OC)c(OC)c(OC)c4)cc32)c(C)n1` ? Thanks!
Found: 100 µM
